Where these numbers come from: patent US5545667A

tested on: C3H 10T1/2 cells; assay: Cell growth inhibition assay, C3H 10T1/2; type: cell-based, mouse; conditions: C3H 10T1/2 mouse fibroblasts; 3-4 days; read-out: IC50 (uM conc. inhibiting growth of the cells by 50%)
measured_parameter: IC50 (µM)
Numbers only, in µM.

Take a look at these entries with their results.
Inquiry: Requested read-out: IC50. Entry: CCCCCCCCCCCCCCCC[N+](C)(C)CCCCCC(=O)[O-]
Reply text: 53

Inquiry: One more molecule: CCCCCCCCCCCC[N+](C)(C)CCCS(=O)(=O)[O-]
Reply text: 6.5

Pending molecule:
Inquiry: Requested read-out: IC50. Entry: CCCCCCCCCCCCCCCC[N+](C)(C)CCCS(=O)(=O)[O-]
Reply text: 3.3
